Reference source for all entries: ChEMBL document CHEMBL4765436

Target: C-X-C chemokine receptor type 2 (Homo sapiens, UniProt P25025)
Sequence (P25025 whole entry): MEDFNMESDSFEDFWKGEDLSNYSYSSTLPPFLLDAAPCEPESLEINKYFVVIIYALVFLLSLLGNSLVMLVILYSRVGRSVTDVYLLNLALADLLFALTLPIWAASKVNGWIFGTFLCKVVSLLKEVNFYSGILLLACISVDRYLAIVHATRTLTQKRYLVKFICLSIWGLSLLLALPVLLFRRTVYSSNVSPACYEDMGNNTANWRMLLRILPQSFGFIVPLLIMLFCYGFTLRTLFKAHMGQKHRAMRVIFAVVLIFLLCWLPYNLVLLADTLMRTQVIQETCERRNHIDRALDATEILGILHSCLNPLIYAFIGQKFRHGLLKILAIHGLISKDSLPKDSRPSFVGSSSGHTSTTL
Assay: Antagonist activity at CXCR2 (unknown origin) expressed in U2OS cells cotransfected with beta-arrestin/TEV protease fusion protein and beta-lactamase assessed as inhibition of CXCL8-induced beta arrestin2 recruitment preincubated for 30 mins followed by CXCL8 stimulation and measured after 5 hrs by FRET based fluorescence/Tango assay
Format: cell-based
Assay readout: IC50

• CC1CCCc2sc(NC(=S)Nc3ccccc3)c(C(=O)NCc3ccccc3)c21 (stereo unspecified) = 2.5 µM
• CC1CCCc2sc(NC(=S)Nc3ccc(Oc4ccccc4)cc3)c(C(=O)OC(C)(C)C)c21 (stereo unspecified) = > 10 µM
• CCOC(=O)NC(=S)Nc1sc2c(c1C(=O)OCC)C(C)CCC2 (stereo unspecified) = 8.7 µM
• CC1CCCc2sc(NC(=S)Nc3ccc(N4CCN(C)CC4)cc3)c(C(=O)OC(C)(C)C)c21 (stereo unspecified) = > 10 µM
• CC1CCCc2sc(NC(=S)Nc3ccccc3)c(C(N)=O)c21 (stereo unspecified) = > 30 µM
• CC(C)(C)OC(=O)c1c(NC(=S)Nc2ccccc2)sc2c1CCOC2 = 2.3 µM
• CCOC(=O)c1c(NC(=S)NCc2ccccc2)sc2c1C(C)CCC2 (stereo unspecified) = 6.7 µM
• CCOC(=O)c1c(NC(=S)Nc2cnccn2)sc2c1C(C)CCC2 (stereo unspecified) = > 10 µM
• CCOC(=O)c1c(NC(=S)Nc2cccc(OC)c2)sc2c1C(C)CCC2 (stereo unspecified) = 3 µM
• COc1ccc(NC(=S)Nc2sc3c(c2C(=O)OC(C)(C)C)C(C)CCC3)cc1OC (stereo unspecified) = 5.7 µM
• CC(C)(C)OC(=O)c1c(NC(=S)Nc2ccccc2)sc2c1CCN(Cc1ccccc1)C2 = > 10 µM
• CN1CCc2c(sc(NC(=S)Nc3ccccc3)c2C(=O)OC(C)(C)C)C1 = > 10 µM
• CCOC(=O)c1c(NC(=S)Nc2ccc3c(c2)OC(F)(F)O3)sc2c1C(C)CCC2 (stereo unspecified) = 1.9 µM
• CCOC(=O)c1c(NC(=S)Nc2ccc(O)cc2)sc2c1C(C)CCC2 (stereo unspecified) = > 30 µM
• CCOC(=O)c1c(NC(=S)Nc2ccccc2)sc2c1C(C)CCC2 (stereo unspecified) = 6.4 µM
• CCOC(=O)c1c(NC(=S)NC(=O)c2ccccc2)sc2c1C(C)CCC2 (stereo unspecified) = > 10 µM
• CC1CCCc2sc(NC(=S)Nc3ccccc3)c(C(=O)O)c21 (stereo unspecified) = 6.7 µM
• COc1ccc(NC(=S)Nc2sc3c(c2C(=O)OC(C)(C)C)CCOC3)cc1OC = 3.4 µM
• CC1CCCc2sc(NC(=S)Nc3ccc4c(c3)OC(F)(F)O4)c(C(=O)OC(C)(C)C)c21 (stereo unspecified) = > 10 µM
• CCOC(=O)c1c(NC(=S)Nc2ccccc2F)sc2c1C(C)CCC2 (stereo unspecified) = 7.5 µM
• CC1CCCc2sc(NC(=S)Nc3ccccc3)c(C(=O)OC(C)(C)C)c21 (stereo unspecified) = 2.5 µM

* * *

Measured pIC50 accompanies every entry in the list below.
Target: C-X-C chemokine receptor type 4 (Homo sapiens)
Sequence (P61073 whole entry, the tested form may be a part): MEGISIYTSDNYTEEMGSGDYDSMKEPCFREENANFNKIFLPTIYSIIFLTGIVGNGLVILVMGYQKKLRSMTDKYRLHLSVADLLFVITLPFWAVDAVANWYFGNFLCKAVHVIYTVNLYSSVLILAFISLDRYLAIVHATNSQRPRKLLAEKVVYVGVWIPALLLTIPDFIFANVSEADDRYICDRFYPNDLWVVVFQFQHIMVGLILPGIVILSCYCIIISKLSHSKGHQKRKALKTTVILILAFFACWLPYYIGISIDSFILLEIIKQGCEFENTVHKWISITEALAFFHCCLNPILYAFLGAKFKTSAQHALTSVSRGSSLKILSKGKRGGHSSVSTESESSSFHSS
Assay: Antagonist activity at CXCR4 (unknown origin) expressed in U2OS cells cotransfected with beta-arrestin/TEV protease fusion protein and beta-lactamase assessed as inhibition of SDF1-alpha-induced beta arrestin2 recruitment preincubated for 30 mins followed by SDF1-alpha stimulation and measured after 5 hrs by FRET based fluorescence/Tango assay
pIC50: −log10 of the molar value.
Assay readout: pIC50

- CCOC(=O)c1c(NC(=S)Nc2ccc(C(F)(F)F)cc2)sc2c1C(C)CCC2 (stereo not given): 4.84
- CCOC(=O)c1c(NC(=S)Nc2ccc(F)cc2)sc2c1C(C)CCC2 (stereo not given): 4.93
- CCOC(=O)c1c(NC(=S)Nc2cccc(OC)c2)sc2c1C(C)CCC2 (stereo not given): 5.05
- CC1CCCc2sc(NC(=S)Nc3ccccc3)c(C(=O)OC(C)(C)C)c21 (stereo not given): 4.92
- CCOC(=O)c1c(NC(=S)Nc2ccc(OC(F)(F)F)cc2)sc2c1C(C)CCC2 (stereo not given): 4.90
- CCOC(=O)c1c(NC(=S)Nc2ccc(O)cc2)sc2c1C(C)CCC2 (stereo not given): 4.93

* * *

Biological target: C-X-C chemokine receptor type 2 (Homo sapiens)
Experiment: Antagonist activity at CXCR2 (unknown origin) expressed in U2OS cells cotransfected with beta-arrestin/TEV protease fusion protein and beta-lactamase assessed as inhibition of CXCL8-induced beta arrestin2 recruitment preincubated for 30 mins followed by CXCL8 stimulation and measured after 5 hrs by FRET based fluorescence/Tango assay
Assay type: cell-based
pIC50: −log10 of the molar value.
Assay readout: pIC50

- CCOC(=O)c1c(NC(=S)Nc2ccc(F)cc2)sc2c1C(C)CCC2 (stereo not given): 5.68
- CC1CCCc2sc(NC(=S)Nc3ccc(OC(C)(C)C)cc3)c(C(=O)OC(C)(C)C)c21 (stereo not given): 5.17
- CC(C)(C)OC(=O)c1c(NC(=S)Nc2ccccc2)sc2c1CCNC2: 5.06
- CCOC(=O)c1c(NC(=S)Nc2ccc(N(C)C)cc2)sc2c1C(C)CCC2 (stereo not given): 5.41
- C[C@H](NC(=S)Nc1sc2c(c1C(=O)OC(C)(C)C)CCOC2)c1ccccc1: 5.62
- CCOC(=O)c1c(NC(=S)Nc2ccc(OC)cc2)sc2c1C(C)CCC2 (stereo not given): 5.36
- CC1COCc2sc(NC(=S)Nc3ccccc3)c(C(=O)OC(C)(C)C)c21 (stereo not given): 5.77

* * *

Listed below: pIC50 values for each entry.
Target: UniProt:P61073
Assay: Antagonist activity at CXCR4 (unknown origin) expressed in U2OS cells cotransfected with beta-arrestin/TEV protease fusion protein and beta-lactamase assessed as inhibition of SDF1-alpha-induced beta arrestin2 recruitment preincubated for 30 mins followed by SDF1-alpha stimulation and measured after 5 hrs by FRET based fluorescence/Tango assay
pIC50: −log10 of the molar value.
Assay readout: pIC50

- CCOC(=O)c1c(NC(=S)NCc2ccccc2)sc2c1C(C)CCC2 (centres undefined): < 4.70
- CC(C)(C)OC(=O)c1c(NC(=S)Nc2ccccc2)sc2c1CCOC2: < 4.52
- CC(C)OC(=O)c1c(NC(=S)Nc2ccccc2)sc2c1C(C)CCC2 (centres undefined): 5.03
- CC1CCCc2sc(NC(=S)Nc3ccc(Oc4ccccc4)cc3)c(C(=O)OC(C)(C)C)c21 (centres undefined): < 5.00
- CCOC(=O)c1c(NC(=S)Nc2ccc(OC)c(OC)c2)sc2c1C(C)CCC2 (centres undefined): < 5.00
- CC1CCCc2sc(NC(=S)Nc3ccccc3)c(C(=O)NCc3ccccc3)c21 (centres undefined): < 4.52
- CCOC(=O)NC(=S)Nc1sc2c(c1C(=O)OCC)C(C)CCC2 (centres undefined): < 5.00
- CCOC(=O)c1c(NC(=S)Nc2cnccn2)sc2c1C(C)CCC2 (centres undefined): < 5.00
- CCOC(=O)c1c(NC(=S)NC(=O)c2ccccc2)sc2c1C(C)CCC2 (centres undefined): < 5.00
- CC1CCCc2sc(NC(=S)Nc3ccc(OC(C)(C)C)cc3)c(C(=O)OC(C)(C)C)c21 (centres undefined): < 5.00
- CC1CCCc2sc(NC(=S)Nc3ccccc3)c(C(=O)Nc3ccccc3)c21 (centres undefined): < 5.00
- CC(C)(C)OC(=O)c1c(NC(=S)Nc2ccccc2)sc2c1CCCO2: < 5.00
- CC1CCCc2sc(NC(=S)Nc3ccccc3)c(C(=O)O)c21 (centres undefined): < 5.00
- CC1CCCc2sc(NC(=S)Nc3ccc(N4CCN(C)CC4)cc3)c(C(=O)OC(C)(C)C)c21 (centres undefined): < 5.00
- CCOC(=O)c1c(NC(=S)Nc2ccccc2)sc2c1C(C)CCC2 (centres undefined): < 5.00
- CCOC(=O)c1c(NC(=S)Nc2ccc(N)cc2)sc2c1C(C)CCC2 (centres undefined): < 5.00
- C[C@@H](NC(=S)Nc1sc2c(c1C(=O)OC(C)(C)C)CCOC2)c1ccccc1: < 4.52
- CCOC(=O)c1c(NC(=S)Nc2ccc(C(C)(C)C)cc2)sc2c1C(C)CCC2 (centres undefined): < 5.00
- C[C@H](NC(=S)Nc1sc2c(c1C(=O)OC(C)(C)C)CCOC2)c1ccccc1: < 4.52
